B1: MYOZ1 (parent)
chain: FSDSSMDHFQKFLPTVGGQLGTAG

# Variants of: B1
# EXPERIMENT DESCRIPTION: protein stability index of a GFP-peptide fusion (GPS, HEK-293T) (PSI 1-6); higher = more stable;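 note: lentivirally expressed fusions sorted by FACS into six bins by GFP to DsRed ratio, PSI derived from sequencing read proportions per bin multiplied by bin number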
# CONDITION DESCRIPTION: c terminus: a fixed tail appended
Here, each record is paired with measured protein stability index data.
PROPERTY LABEL: protein stability index

[
  {
    "CHAIN SEQUENCE": "FSDSSMDHFQKFLPTVGRQLGTAG [G18R]",
    "REPORTED RESULT": 2.79
  },
  {
    "CHAIN SEQUENCE": "FSDSSMDHFQKFLPTVGGQKGTAG [L20K]",
    "REPORTED RESULT": 3.1
  },
  {
    "CHAIN SEQUENCE": "FSDSSMDPFQKFLPTVGGQLGTAG [H8P]",
    "REPORTED RESULT": 2.36
  },
  {
    "CHAIN SEQUENCE": "FSDSSMDHFLKFLPTVGGQLGTAG [Q10L]",
    "REPORTED RESULT": 1.3
  },
  {
    "CHAIN SEQUENCE": "FSDSSMDHFQKFLPTVGGQLITAG [G21I]",
    "REPORTED RESULT": 1.76
  },
  {
    "CHAIN SEQUENCE": "FSDSSMDYFQKFLPTVGGQLGTAG [H8Y]",
    "REPORTED RESULT": 2.08
  },
  {
    "CHAIN SEQUENCE": "FSDSSMDHFQKNLPTVGGQLGTAG [F12N]",
    "REPORTED RESULT": 3.68
  },
  {
    "CHAIN SEQUENCE": "FSDSSMDDFQKFLPTVGGQLGTAG [H8D]",
    "REPORTED RESULT": 2.49
  },
  {
    "CHAIN SEQUENCE": "FSDSSMDHFQKFLPTVGGQHGTAG [L20H]",
    "REPORTED RESULT": 2.79
  },
  {
    "CHAIN SEQUENCE": "GSDSSMDHFQKFLPTVGGQLGTAG [F1G]",
    "REPORTED RESULT": 2.41
  },
  {
    "CHAIN SEQUENCE": "FSDSSVDHFQKFLPTVGGQLGTAG [M6V]",
    "REPORTED RESULT": 2.23
  }
]
